molecular target: Human DYRK1A (Homo sapiens, UniProt Q13627); construct: purchased Invitrogen PV3997; assay: DYRK1A Kinase TR-FRET (IMAP-Tb) Assay; type: biochemical; conditions: TR-FRET (IMAP-Tb); ATP 70 μM; 37° C. for 60 minutes; averages of multiple runs; read-out: Enzyme IC50 (μM) DYRK1A
Counter-ions that a name gives are not always drawn.
# note: exactly 0.04 µM is not below, so it is Criterion not met; use Criterion met for IC50 strictly under it

Consider the following illustrative entries.
NCC(Nc1nccc(-c2n[nH]c3nc(NCCN4CCOCC4)ncc23)n1)c1ccsc1 (stereo not drawn) [Example 82, hydrochloride] | Criterion met
Clc1ccccc1CNc1nccc(-c2n[nH]c3nc(NCCN4CCOCC4)ncc23)n1 [Example 63, hydrochloride] | Criterion met
c1ccc(CNc2nccc(-c3n[nH]c4nc(NCCN5CCOCC5)ncc34)n2)cc1 [Example 61, hydrochloride] | Criterion not met

**Query** Hello, I'm reviewing records and need to know if IC50 of Clc1cccc(CNc2nccc(-c3n[nH]c4nc(NC5CCNCC5)ncc34)n2)c1 [Example 86, hydrochloride] is below 0.04 µM. Could you check?
**Result** Criterion not met

**Query** Hello, I'm reviewing records and need to know if IC50 of NCCC(Nc1cccc(-c2n[nH]c3nc(N[C@H]4CC[C@H](N)CC4)ncc23)n1)c1ccccc1 (stereo partly drawn) [Example 69, hydrochloride] is below 0.04 µM. Could you check?
**Result** Criterion not met

**Query** Hello, I'm reviewing records and need to know if IC50 of N[C@H]1CC[C@H](Nc2ncc3c(-c4cccc(NCc5ccsc5)n4)n[nH]c3n2)CC1 [Example 65, hydrochloride] is below 0.04 µM. Could you check?
**Result** Criterion met

**Query** Hello, I'm reviewing records and need to know if IC50 of N[C@H]1CC[C@H](Nc2ncc3c(-c4ccnc(NCc5cccc(C(F)(F)F)c5)n4)n[nH]c3n2)CC1 [Example 84, hydrochloride] is below 0.04 µM. Could you check?
**Result** Criterion met

**Query** Hello, I'm reviewing records and need to know if IC50 of Clc1cccc(CNc2nccc(-c3n[nH]c4nc(NCCN5CCCC5)ncc34)n2)c1 [Example 90, hydrochloride] is below 0.04 µM. Could you check?
**Result** Criterion not met

**Query** Hello, I'm reviewing records and need to know if IC50 of c1cc(NCc2ccsc2)cc(-c2n[nH]c3nc(NCCN4CCOCC4)ncc23)c1 is below 0.04 µM. Could you check?
**Result** Criterion not met

**Query** Hello, I'm reviewing records and need to know if IC50 of N[C@H]1CC[C@H](Nc2ncc3c(-c4cccc(NCc5ccccc5Cl)c4)n[nH]c3n2)CC1 is below 0.04 µM. Could you check?
**Result** Criterion not met

**Query** Hello, I'm reviewing records and need to know if IC50 of Clc1ccc(CNc2nccc(-c3n[nH]c4nc(NCCN5CCOCC5)ncc34)n2)cc1 [Example 64, hydrochloride] is below 0.04 µM. Could you check?
**Result** Criterion not met

**Query** Hello, I'm reviewing records and need to know if IC50 of c1cc(NCc2cccs2)cc(-c2n[nH]c3nc(NCCN4CCOCC4)ncc23)c1 is below 0.04 µM. Could you check?
**Result** Criterion not met

**Query** Hello, I'm reviewing records and need to know if IC50 of N[C@H]1CC[C@H](Nc2ncc3c(-c4cccc(NCc5ccccc5)c4)n[nH]c3n2)CC1 is below 0.04 µM. Could you check?
**Result** Criterion not met

**Query** Hello, I'm reviewing records and need to know if IC50 of Clc1cccc(CNc2cccc(-c3n[nH]c4nc(NCCN5CCOCC5)ncc34)n2)c1 is below 0.04 µM. Could you check?
**Result** Criterion not met

**Query** Hello, I'm reviewing records and need to know if IC50 of N[C@H]1CC[C@H](Nc2ncc3c(-c4ccnc(NCc5cccc(F)c5)n4)n[nH]c3n2)CC1 [Example 85, hydrochloride] is below 0.04 µM. Could you check?
**Result** Criterion met
